Target or system parent strain (SAWy518); recorded quantity Offscreen_42hr.

>  <compound>
CSc1nc2cc(Cl)c(Oc3cccc(Cl)c3Cl)cc2[nH]1

>  <value_observed>
0.8341

$$$$
>  <compound>
N#CC(c1ccc(Cl)cc1)c1c(Cl)cc(-n2ncc(=O)[nH]c2=O)cc1Cl (centres unmarked)

>  <value_observed>
0.9299

$$$$
>  <compound>
COc1ncc(-c2ccc3nccc(-c4ccnnc4)c3c2)cc1NS(=O)(=O)c1ccc(F)cc1F [GSK2126458]

>  <value_observed>
0.9503

$$$$

Form field - read-out: Offscreen_42hr; system: parent strain (SAWy518); submitted item: `CCCCC1=NC2(CCCC2)C(=O)N1Cc1ccc(-c2ccccc2-c2nnn[nH]2)cc1` 0.9579

Form field - read-out: Offscreen_42hr; system: parent strain (SAWy518); submitted item: `Oc1cc(Cl)ccc1Oc1ccc(Cl)cc1Cl` 0.8343

----------
Target or system parent strain (SAWy518); recorded quantity Offtarget_sub.
Reply with just the number.

>  <compound>
CC(C)NNC(=O)c1ccncc1.O=P(O)(O)O [Iproniazid phosphate, reference compound]

>  <Offtarget_sub>
0.4143

$$$$
>  <compound>
Cl.O=S(=O)(c1cccc2c(I)cccc12)N1CCCNCC1 [ML-7, reference compound]

>  <Offtarget_sub>
0.3788

$$$$
>  <compound>
NS(=O)(=O)c1ccc(-n2nc(C(F)(F)F)cc2-c2ccc(Cl)cc2)cc1 [SC-236, reference compound]

>  <Offtarget_sub>
0.2541

$$$$
>  <compound>
CC(C)Cn1c(=O)n(C)c(=O)c2[nH]cnc21 [3-Isobutyl-1-methylxanthine, reference compound]

>  <Offtarget_sub>
0.4308

$$$$

Form field - read-out: Offtarget_sub; system: parent strain (SAWy518); submitted item: CCCCCCC(=O)OC1CC(C)(C)NC(C)(C)C1.Cl [TMPH hydrochloride, reference compound] 0.4142

----------
Target or system parent strain (SAWy518); recorded quantity OffScreen_percentage.
Field: numeric (percentage). Do not append units.

>  <compound>
O=c1cc(-c2ccc(O)cc2)oc2cc(O)cc(O)c12 [Apigenin]

>  <unit_name>
percentage

>  <OffScreen_percentage>
96.0843

$$$$

If you can, please state the reported OffScreen_percentage value of O=C(O)Cc1ccccc1Nc1c(Cl)cccc1Cl [Diclofenac, reference compound] . 100.855

If you can, please state the reported OffScreen_percentage value of O=C(O)c1ccc(-n2nc(-c3ccccc3O)nc2-c2ccccc2O)cc1 [Deferasirox] . 95.9727

If you can, please state the reported OffScreen_percentage value of O=c1cc(O)cc(/C=C/c2ccc(O)c(O)c2)o1 [Hispidin] . 97.0508

If you can, please state the reported OffScreen_percentage value of CC(C)(C)CC(C)(C)c1ccc(OCCOCC[N+](C)(C)Cc2ccccc2)cc1 [Benzethonium] . 95.2045

----------
Target or system parent strain (SAWy518); recorded quantity Offscreen_24hr.

>  <compound>
Nc1ccc(-c2nc3ccc(-c4nc5cc(N)ccc5[nH]4)cc3[nH]2)cc1

>  <Offscreen_24hr>
0.8739

$$$$
>  <compound>
CN(C)c1ccc2nc3ccc(=[N+](C)C)cc-3sc2c1.O.O.O.[Cl-]

>  <Offscreen_24hr>
0.9565

$$$$
>  <compound>
COc1ccc(CCN(C)CCCOc2ccc(S(=O)(=O)c3c(C(C)C)c4ccccc4n3C)cc2)cc1OC.O=C(O)C(=O)O

>  <Offscreen_24hr>
0.9061

$$$$

Form field - read-out: Offscreen_24hr; system: parent strain (SAWy518); submitted item: `CC/C(=C(/CC)c1ccc(O)cc1)c1ccc(O)cc1` 0.9171

Form field - read-out: Offscreen_24hr; system: parent strain (SAWy518); submitted item: O=C(/C=C/c1ccc(O)c(O)c1)OCCc1ccccc1 [PHENETHYL CAFFEATE (CAPE)] 0.5133

----------
Target or system parent strain (SAWy518); recorded quantity Offscreen_42hr.
Reply with just the number.

Some entries whose results are on file:
>  <compound>
CS(=O)(=O)c1ccc(C2=C(c3ccccc3)C(=O)OC2)cc1 [Rofecoxib, reference compound]

>  <Offscreen_42hr>
0.975

$$$$
>  <compound>
CC(C(=O)O)c1ccc2c(c1)[nH]c1ccc(Cl)cc12 (stereo not drawn) [CARPROFEN]

>  <Offscreen_42hr>
0.8964

$$$$

Form field - read-out: Offscreen_42hr; system: parent strain (SAWy518); submitted item: CC(C(=O)O)c1ccc2c(c1)[nH]c1ccc(Cl)cc12 (stereo not drawn) [Carprofen] 0.8964

Form field - read-out: Offscreen_42hr; system: parent strain (SAWy518); submitted item: `O=C(Nc1cc(C(F)(F)F)cc(C(F)(F)F)c1)c1cc(Cl)ccc1O` 0.8452

Form field - read-out: Offscreen_42hr; system: parent strain (SAWy518); submitted item: `Nc1ccc(-c2nc3ccc(-c4nc5cc(N)ccc5[nH]4)cc3[nH]2)cc1` 0.9612

Form field - read-out: Offscreen_42hr; system: parent strain (SAWy518); submitted item: `O=C1Nc2ccccc2/C1=C1/Nc2ccccc2/C1=N\O` 0.9006

Form field - read-out: Offscreen_42hr; system: parent strain (SAWy518); submitted item: CCOc1nc2cccc(C(=O)OC(C)OC(=O)OC3CCCCC3)c2n1Cc1ccc(-c2ccccc2-c2nnn[nH]2)cc1 (stereo not drawn) 0.95

----------
- System: parent strain (SAWy518)
label 1 means recorded Offscreen_18hr is 0.7 or above; label 0 means it is below 0.7.

>  <compound>
CC(C(=O)O)c1ccc2c(c1)[nH]c1ccc(Cl)cc12 (centres unmarked) [Carprofen]

>  <group>
label 1

$$$$
>  <compound>
O=C(O)Cc1cc(I)c(Oc2cc(I)c(O)c(I)c2)c(I)c1

>  <group>
label 1

$$$$
>  <compound>
c1ccc2c(c1)Nc1ccccc1S2

>  <group>
label 1

$$$$
>  <compound>
O=C(C1CCCCC1)N1CC(=O)N2CCc3ccccc3C2C1 (centres unmarked)

>  <group>
label 1

$$$$
>  <compound>
CCOC(=O)Oc1c(OC)cc(C(=O)O[C@@H]2C[C@@H]3CN4CCc5c([nH]c6cc(OC)ccc56)[C@H]4C[C@@H]3[C@H](C(=O)OC)[C@H]2OC)cc1OC

>  <group>
label 1

$$$$

Check this compound for Offscreen_18hr at or above 0.7: `C[C@@H]1CC[C@H]2[C@@H](C)C(=O)O[C@@H]3O[C@@]4(C)CC[C@@H]1[C@]32OO4` label 0

Check this compound for Offscreen_18hr at or above 0.7: O=C1c2ccc(Nc3ccc(F)cc3F)cc2CCc2ccc(OC[C@H](O)CO)cc21 [Skepinone-L] label 1

Check this compound for Offscreen_18hr at or above 0.7: `N#Cc1c(Cl)c(Cl)c(Cl)c(C#N)c1Cl` label 0

Check this compound for Offscreen_18hr at or above 0.7: C[n+]1c2cc(N)ccc2cc2ccc(N)cc21.[Cl-] [ACRIFLAVINIUM HYDROCHLORIDE] label 0

Check this compound for Offscreen_18hr at or above 0.7: CC(Cc1ccc(O)c(O)c1)C(C)Cc1ccc(O)c(O)c1 (centres unmarked) [Nordihydroguaiaretic acid, reference compound] label 1

Check this compound for Offscreen_18hr at or above 0.7: CC1(C)O[C@@H]2C[C@H]3[C@@H]4C[C@H](F)C5=CC(=O)C=C[C@]5(C)[C@H]4[C@@H](O)C[C@]3(C)[C@]2(C(=O)CO)O1 [Flunisolide] label 1

Check this compound for Offscreen_18hr at or above 0.7: `C=CCc1ccc(O)c(-c2ccc(O)c(CC=C)c2)c1` label 1

Check this compound for Offscreen_18hr at or above 0.7: Cc1ccc(S(=O)(=O)/C=C/C#N)cc1 [Bay 11-7082] label 0

Check this compound for Offscreen_18hr at or above 0.7: `COc1ccc2c(c1)CC[C@@H]1[C@@H]2CC[C@]2(C)[C@H](NCCCCCCN3C(=O)C=CC3=O)CC[C@@H]12` label 0

----------
- Tested on: parent strain (SAWy518)
readout_kind: Offscreen_18hr

Some entries whose results are on file:
>  <molecule>
O=C1Nc2ccccc2/C1=C1/Nc2ccccc2/C1=N\O [Indirubin-3'-oxime]

>  <experimental_system>
parent strain (SAWy518)

>  <readout_kind>
Offscreen_18hr

>  <value_observed>
0.6559

$$$$
>  <molecule>
O=C(/C=C/c1ccc(O)cc1)c1ccc(O)cc1O [Isoliquiritigenin]

>  <experimental_system>
parent strain (SAWy518)

>  <readout_kind>
Offscreen_18hr

>  <value_observed>
0.8177

$$$$

Shift focus to the following entry.
Form field - read-out: Offscreen_18hr; system: parent strain (SAWy518); submitted item: CC[C@H](C(=O)[C@H](C)[C@@H](O)[C@@H](C)[C@@H]1O[C@@H]([C@@H](CC)C(=O)O)CC[C@H]1C)[C@H]1O[C@]2(C=C[C@@H](O)[C@]3(CC[C@@](C)([C@H]4CC[C@](O)(CC)[C@H](C)O4)O3)O2)[C@H](C)C[C@H]1C [Salinomycin (Procoxacin)] 0.8013
